# study.system: α4β1 integrin (Homo sapiens (Human), UniProt P05556+P13612)
# Sequence (P13612 34-1032): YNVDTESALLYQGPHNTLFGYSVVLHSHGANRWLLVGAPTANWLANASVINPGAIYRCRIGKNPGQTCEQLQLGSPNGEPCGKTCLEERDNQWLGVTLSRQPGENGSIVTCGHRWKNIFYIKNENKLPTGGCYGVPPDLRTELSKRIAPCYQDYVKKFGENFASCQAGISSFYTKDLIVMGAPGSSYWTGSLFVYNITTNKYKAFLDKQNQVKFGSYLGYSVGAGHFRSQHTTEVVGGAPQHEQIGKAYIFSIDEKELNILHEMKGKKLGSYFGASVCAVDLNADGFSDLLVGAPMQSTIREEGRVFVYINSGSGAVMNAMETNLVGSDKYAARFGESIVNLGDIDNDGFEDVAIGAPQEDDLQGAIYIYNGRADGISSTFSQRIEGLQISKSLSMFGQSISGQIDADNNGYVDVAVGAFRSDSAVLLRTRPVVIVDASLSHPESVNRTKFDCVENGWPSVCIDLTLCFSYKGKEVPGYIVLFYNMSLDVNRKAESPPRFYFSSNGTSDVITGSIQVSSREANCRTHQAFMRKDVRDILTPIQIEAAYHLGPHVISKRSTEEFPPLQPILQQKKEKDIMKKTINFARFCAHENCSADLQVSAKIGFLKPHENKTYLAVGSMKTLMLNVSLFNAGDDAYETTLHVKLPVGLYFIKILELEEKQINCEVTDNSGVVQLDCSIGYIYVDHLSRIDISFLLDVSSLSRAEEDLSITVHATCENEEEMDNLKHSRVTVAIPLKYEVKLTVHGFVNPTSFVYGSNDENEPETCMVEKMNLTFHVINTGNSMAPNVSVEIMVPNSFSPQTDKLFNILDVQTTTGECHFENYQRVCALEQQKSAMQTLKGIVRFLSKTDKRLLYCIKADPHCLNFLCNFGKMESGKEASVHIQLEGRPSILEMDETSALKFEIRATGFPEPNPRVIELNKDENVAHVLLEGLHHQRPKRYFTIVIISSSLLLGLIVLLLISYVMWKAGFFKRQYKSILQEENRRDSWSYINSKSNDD
# Sequence (P05556 21-798): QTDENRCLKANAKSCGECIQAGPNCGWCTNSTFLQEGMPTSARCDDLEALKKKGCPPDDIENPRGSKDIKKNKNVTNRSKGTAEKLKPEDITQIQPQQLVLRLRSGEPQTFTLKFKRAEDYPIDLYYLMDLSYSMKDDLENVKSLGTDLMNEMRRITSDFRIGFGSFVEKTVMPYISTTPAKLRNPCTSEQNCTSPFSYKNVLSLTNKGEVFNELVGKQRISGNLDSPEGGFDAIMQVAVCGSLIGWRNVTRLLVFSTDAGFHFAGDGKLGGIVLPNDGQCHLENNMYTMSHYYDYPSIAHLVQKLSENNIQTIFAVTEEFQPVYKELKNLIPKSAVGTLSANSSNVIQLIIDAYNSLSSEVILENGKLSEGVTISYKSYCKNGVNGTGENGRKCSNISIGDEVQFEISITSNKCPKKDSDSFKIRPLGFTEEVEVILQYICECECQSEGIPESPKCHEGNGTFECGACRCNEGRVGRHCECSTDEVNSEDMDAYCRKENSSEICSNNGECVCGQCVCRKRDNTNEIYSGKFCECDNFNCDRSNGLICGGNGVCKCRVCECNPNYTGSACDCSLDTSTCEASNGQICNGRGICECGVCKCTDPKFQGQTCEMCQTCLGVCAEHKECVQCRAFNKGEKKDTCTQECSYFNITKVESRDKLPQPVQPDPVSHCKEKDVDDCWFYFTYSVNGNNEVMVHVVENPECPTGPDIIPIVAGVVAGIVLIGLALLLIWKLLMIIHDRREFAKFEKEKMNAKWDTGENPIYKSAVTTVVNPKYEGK
# method: Integrin Adhesion Assay: Protocol 5 (VCAM-coated plate, RPMI-8866 cells with stable LOF mutation of the ITGB7 gene)
# Format: cell-based
# condition.label: Protocol 5; RPMI-8866 cells with LOF mutation of ITGB7, VCAM; read-out: Mean IC50 α4β1 KO
measure.name: IC50

Consider the worked cases shown below.
1) O=C(O)[C@H](Cc1cccc2c(-c3nccc4ccc(CCCN5CCCCC5)cc34)cccc12)NC(=O)C1(C(F)(F)F)CCN(CC(F)F)CC1 [Compound 748]    > 1000 nM
2) O=C(O)[C@H](Cc1cccc2c(-c3ncc(CN4CCC[C@H](F)C4)c4ccccc34)cccc12)NC(=O)C1(C(F)(F)F)CCN(CC(F)F)CC1 [Compound 859]    > 1000 nM
3) O=C(O)[C@H](Cc1cccc2c(-c3ncc(CN4CCC[C@@H](F)C4)c4ccccc34)cccc12)NC(=O)C1(C(F)(F)F)CCN(CC(F)F)CC1 [Compound 860]    > 1000 nM
4) COc1cccc(CN2CCCCC2)c1-c1cccc2c(C[C@H](NC(=O)c3c(C)cccc3F)C(=O)O)cccc12 [Compound 1014]    100 to 1000 nM
5) O=C(O)[C@H](Cc1cccc2c(-c3ncc(CN4CCCCC4)cc3C3CC3)cccc12)NC(=O)C1(C(F)(F)F)CCN(CC(F)F)CC1 [Compound 898]    > 1000 nM
6) COc1cccc(CN2CCC(C)(C)CC2)c1-c1cccc2c(C[C@H](NC(=O)c3c(C)cccc3F)C(=O)O)cccc12 [Compound 1017]    100 to 1000 nM
7) COc1ccc(CCN2CCCCC2)c(C(F)(F)F)c1-c1cccc2c(C[C@H](NC(=O)C3(C(F)(F)F)CCN(CC(F)(F)F)CC3)C(=O)O)cccc12 [Compound 727]    10 to 100 nM
8) COc1cc(CN2CCCC2)cc(OC)c1-c1cccc2c(C[C@H](NC(=O)C3(C(F)(F)F)CCN(CC(F)(F)F)CC3)C(=O)O)cccc12 [Compound 796]    100 to 1000 nM
9) CC1(C)CCN(Cc2cnc(-c3cccc4c(C[C@H](NC(=O)C5(C(F)(F)F)CCN(CC(F)F)CC5)C(=O)O)cccc34)c3ccccc23)CC1 [Compound 861]    100 to 1000 nM
10) Cc1cccc(F)c1C(=O)N[C@@H](Cc1cccc2c(-c3c(C(F)(F)F)c4cc(CN5CCC(F)(F)CC5)ccc4n(C)c3=O)cccc12)C(=O)O [Compound 1032]    > 1000 nM

Request the reported IC50 associated with CC[C@H]1CCCCN1Cc1cnc(-c2cccc3c(C[C@H](NC(=O)C4(C(F)(F)F)CCN(CC(F)(F)F)CC4)C(=O)O)cccc23)c2ccccc12 [Compound 929]
100 to 1000 nM

Try the compound O=C(O)[C@H](Cc1cccc2c(-c3ncc(CN4CCC(F)(F)CC4)c4ccccc34)cccc12)NC(=O)C1(C(F)(F)F)CCN(CC(F)(F)F)CC1 [Compound 853]
> 1000 nM

* * *

Listed here: items and their measured IC50.
# study.system: α4β1 integrin (Homo sapiens (Human), UniProt P05556+P13612)
# method: Integrin Adhesion Assay: Protocol 5 (VCAM-coated plate, RPMI-8866 cells with stable LOF mutation of the ITGB7 gene)
# Assay type: cell-based
# condition.label: RPMI-8866 cells with stable LOF mutation of the ITGB7 gene; read-out: Mean IC50 α4β1 KO^b

Consider the worked cases shown below.
1. O=C(O)[C@H](Cc1cccc2c(-c3c(C(F)(F)F)ccc4cccnc34)cccc12)NC(=O)C1(C(F)(F)F)CCN(CC(F)(F)F)CC1    > 1 µM
2. CN(C)c1ccc2c(c1)c(C(F)(F)F)c(-c1cccc3c(C[C@H](NC(=O)[C@]4(C)CC[C@H](N5CCC(F)(F)CC5)CC4)C(=O)O)cccc13)c(=O)n2C    > 1 µM
3. CN(C)Cc1cccc2c(-c3cccc4c(C[C@H](NC(=O)[C@]5(C)CC[C@H](N6CCOC[C@@H]6C(F)(F)F)CC5)C(=O)O)cccc34)nccc12 (single isomer, unassigned)    > 1 µM
4. Cn1c(=O)c(-c2cccc3c(C[C@H](NC(=O)C4(C(F)(F)F)CCN([C@H](C5CC5)C(F)(F)F)CC4)C(=O)O)cccc23)c(C(F)(F)F)c2ccccc21    > 1 µM
5. O=C(O)[C@H](Cc1cccc2c(-c3nccc4ccccc34)cccc12)NC(=O)C1(C(F)(F)F)CCN(C2COC2)CC1    > 1 µM
6. COc1ccc(CN(C)C)c(OC)c1-c1cccc2c(C[C@H](NC(=O)c3c(C)cccc3CN3CCC(F)(F)CC3)C(=O)O)cccc12    > 1 µM
7. COc1ccc(CN2CCC(F)(F)CC2)c(OC)c1-c1cccc2c(C[C@H](NC(=O)c3c(C)ccnc3F)C(=O)O)cccc12    > 1 µM
8. CN(C)c1ccc2c(c1)c(C(F)(F)F)c(-c1cccc3c(C[C@H](NC(=O)[C@]4(C)CC[C@@H](N5CCC(F)(F)CC5)CC4)C(=O)O)cccc13)c(=O)n2C    > 1 µM
9. COc1ccc(CN(C)C)c(OC)c1-c1cccc2c(C[C@H](NC(=O)c3c(F)cccc3C(F)(F)F)C(=O)O)cccc12    0.1 to 1 µM
10. COc1ccc(CN2CCCC2)c(OC)c1-c1cccc2c(C[C@H](NC(=O)c3c(C)cccc3F)C(=O)O)cccc12    0.1 to 1 µM

Request the reported IC50 associated with Cn1c(=O)c(-c2cccc3c(C[C@H](NC(=O)C4(C)CCN(C5COC5)CC4)C(=O)O)cccc23)c(C(F)(F)F)c2ccccc21
> 1 µM

Try the molecule COc1ccc2cccnc2c1-c1cccc2c(C[C@H](NC(=O)C3(C(F)(F)F)CCN(CC(F)(F)F)CC3)C(=O)O)cccc12
> 1 µM
